System: Coxsackievirus B5
protocol_text: Antiviral activity against Human coxsackievirus B5 Ohio-1 infected in african green monkey Vero 76 cells assessed as reduction of virus-induced plaque formation after 3 days using crystal violet staining
Assay type: functional, organism-based
condition_description: Enterovirus B, Ohio-1, Vero, 72 h
pEC50: −log10 of the molar value.
# Lookup of reported pEC50 keyed by entry

Some entries whose results are on file:
- c1cnc2cc3nccnc3cc2c1: < 4.00
- Clc1c2ncccc2cc2nc(-c3ccccc3)[nH]c12: 4.44
- Oc1ccnc2c(Cl)c3[nH]nnc3cc12: < 4.00
- O=c1[nH]c2c(Cl)c3ncccc3cc2nc1-c1ccccc1: < 4.00
- Oc1ccnc2c(Cl)c3nccnc3cc12: < 4.05
- CC(=O)n1nnc2c(Cl)c3ncccc3cc21: < 4.00
- c1ccc(-c2nc3cc4cccnc4cc3[nH]2)cc1: 4.72
- C#C[C@@]1(O)[C@H](O)[C@@H](CO)O[C@H]1n1ccc(N)nc1=O: 4.57
- O=c1[nH]c2cc3c(O)ccnc3c(Cl)c2nc1-c1ccccc1: < 4.00
- CCOC(=O)C(C)c1nc2cc3cccnc3c(Cl)c2[nH]c1=O (stereo unspecified): < 4.00

[Q] I have this molecule here, CC(C)c1nc2cc3cccnc3c(Cl)c2[nH]c1=O , and I need its recorded pEC50.
[A] < 4.00

[Q] I have this molecule here, c1cnc2cc3[nH]nnc3cc2c1 , and I need its recorded pEC50.
[A] < 4.00

---

Tested on: Coxsackievirus B5
protocol_text: Antiviral activity against Human coxsackievirus B5 Ohio-1 infected in african green monkey Vero 76 cells assessed as reduction of virus-induced plaque formation after 3 days using crystal violet staining
Assay type: functional, organism-based
condition_description: Enterovirus B, Ohio-1, Vero, 72 h
pEC50: −log10 of the molar value.
# Lookup of reported pEC50 keyed by entry

Some entries whose results are on file:
• N#CCn1nnc2c(Cl)c3ncccc3cc21 = < 4.00
• Clc1ccc(-c2nc3cc4cccnc4cc3[nH]2)cc1 = 4.37
• O=[N+]([O-])c1ccc(-c2nc3cc4cccnc4cc3[nH]2)c2ccccc12 = < 4.00
• Clc1c2ncccc2cc2nc(CBr)c(CBr)nc12 = < 4.00
• CC(=O)Nc1ccc(-c2nc3cc4cccnc4c(Cl)c3[nH]2)cc1 = < 4.00
• Clc1ccc(-c2nc3cc4cccnc4cc3[nH]2)cc1Cl = < 4.00
• O=c1[nH]c2cc3cccnc3c(Cl)c2nc1Cc1ccccc1 = < 4.06
• CCc1nc2cc3cccnc3c(Cl)c2[nH]c1=O = < 4.00

[Q] I have this compound here, Clc1c2ncccc2cc2nn[nH]c12 , and I need its recorded pEC50.
[A] < 4.00

[Q] I have this compound here, Clc1c2ncccc2cc2nc(-c3ccccc3)c(-c3ccccc3)nc12 , and I need its recorded pEC50.
[A] < 4.00

[Q] I have this compound here, O=c1[nH]c2cc3cccnc3c(Cl)c2nc1-c1ccccc1 , and I need its recorded pEC50.
[A] < 4.00

[Q] I have this compound here, O=C(CCl)Cn1nnc2cc3cccnc3c(Cl)c21 , and I need its recorded pEC50.
[A] < 4.00

---

protocol_text: Cytotoxicity against MDBK cells after 48 to 96 hrs by MTT assay
Format: cell-based, Bos taurus
condition_description: cattle
Output yes (1) for records whose CC50 is lower than 80 µM, no (0) for records at or above 80 µM.

The examples below pair each entry with its known result.
- O=[N+]([O-])c1ccc(-c2nc3cc4cccnc4cc3[nH]2)c2ccccc12: yes (1)
- Clc1c2ncccc2cc2nc(CBr)c(CBr)nc12: yes (1)
- c1cnc2cc3[nH]cnc3cc2c1: no (0)
- Clc1c2ncccc2cc2ncc(-c3ccccc3)nc12: no (0)
- N#CCn1nnc2cc3cccnc3c(Cl)c21: no (0)
- CC(C)c1nc2cc3cccnc3c(Cl)c2[nH]c1=O: no (0)
- CCc1nc2cc3cccnc3c(Cl)c2[nH]c1=O: yes (1)
- c1ccc(-c2ccc(-c3nc4cc5cccnc5cc4[nH]3)cc2)cc1: no (0)

[Q] hey, is CC50 for Clc1c2ncccc2cc2nn[nH]c12 lower than 80 µM or not?
[A] no (0)

[Q] hey, is CC50 for O=[N+]([O-])c1ccc(-c2nc3cc4cccnc4cc3[nH]2)cc1 lower than 80 µM or not?
[A] no (0)

[Q] hey, is CC50 for COc1ccccc1-c1nc2cc3cccnc3cc2[nH]1 lower than 80 µM or not?
[A] yes (1)
